- Test system: Calu-3
- method_summary: cell viability relative to DMSO; higher = less toxic
- assay_conditions: 72 h; 1 nM
endpoint_label: cell viability (%)
Response body: numeric value in %, unit text excluded.

Request the reported cell viability associated with CC1(C)O[C@@H]2C[C@H]3[C@@H]4CCC5=CC(=O)C=C[C@]5(C)[C@H]4[C@@H](O)C[C@]3(C)[C@]2(C(=O)CO)O1 [desonide]
124

Then CCCC[C@H](NC(C)=O)C(=O)N[C@H]1CC(=O)NCCCC[C@@H](C(=O)O)NC(=O)[C@H](Cc2c[nH]c3ccccc23)NC(=O)[C@H](CCCNC(=N)N)NC(=O)[C@@H](Cc2ccccc2)NC(=O)[C@H](Cc2c[nH]cn2)NC1=O [bremelanotide] ?
99.1

Then `O=C(Nc1cnccc1Cl)N1CCN(Cc2ccc3c(c2)OC(F)(F)O3)CC1` ?
92.4

Then O[C@@H]1[C@H](O)[C@@H](CCl)O[C@H]1n1cnc2c(NC3CC4CCC3C4)ncnc21 (mixture of isomers) [5'-chloro-5'-deoxy-ENBA-(+/-)] ?
99.1

Then Cc1cc(NC(=O)C(c2ccccc2)N2CCCc3ccccc32)no1 (stereo unspecified) ?
103

Then `CC(=O)[C@@]1(O)CC[C@H]2[C@@H]3C=C(Cl)C4=CC(=O)[C@@H]5C[C@@H]5[C@]4(C)[C@H]3CC[C@@]21C` ?
99.5

Then `CC(C)NCCN(C(C)C)S(=O)(=O)c1ccc(Cl)cc1Cl` ?
97.1

Then `O=C1c2cccnc2OC[C@@H]2CCCN12` ?
103

Then `c1cc(OCCN2CCCCC2)cc(-c2n[nH]c3ccc(-c4nnc[nH]4)cc23)c1` ?
104

Then N[C@@H](Cc1ccc(Cl)cc1)C(=O)O (racemic) [fenclonine-(+/-)] ?
98.1

Then CN1CCCN(C(c2ccccc2)c2ccc(Cl)cc2)CC1 (stereo unspecified) ?
96.8

Then `CCOC(=O)[C@H](CCc1ccccc1)N[C@@H](C)C(=O)N1Cc2ccccc2C[C@H]1C(=O)O` ?
95.2

Then `CCCCCCCC/C=C\CCCCCCCC(=O)NCCc1ccc(O)c(O)c1` ?
105

Then `COc1cc(C[C@H]2C(=O)OC[C@@H]2Cc2ccc(OC)c(OC)c2)ccc1O` ?
112

Then `Nc1ncnc2c1ncn2[C@H]1CC[C@@H](CO)O1` ?
98.8

Then `CC(C)C(=O)Nc1ncc(-c2cc(C(F)F)nn2-c2c(Cl)cccc2Cl)s1` ?
88.4

---

- System: Vero E6
- method_summary: cell viability relative to DMSO; higher = less toxic
- assay_conditions: 72 h; 1000 nM
Hi there, I'd appreciate the recorded cell viability for every entry that follows.
Please give the number followed by its unit.

Request the reported cell viability associated with CCCCCCCC/C=C\CCCCCCCC(=O)NCCc1ccc(O)c(O)c1 [OLDA]
99.2%

Then CS(=O)(=O)c1ccc([C@@H](O)[C@@H](CO)NC(=O)C(Cl)Cl)cc1 [thiamphenicol] ?
96.8%

Then Cc1ccc2c(c1)[C@H]1CN(C)CC[C@H]1N2 [stobadine] ?
103%

Then CC[C@]12CCCN3CCc4c(n(c5ccccc45)C(=O)C1)[C@@H]32 [vinburnine] ?
96.9%

Then NCCNC(=O)c1ccc(Cl)cn1 [lazabemide] ?
91%

Then `CCN(CC)CCOc1ccc(Nc2ncc3cc(-c4c(Cl)cccc4Cl)c(=O)n(C)c3n2)cc1` ?
26.6%

Then Cc1ncc([N+](=O)[O-])n1CCO [metronidazole] ?
93.5%

Then CC(=O)[C@@]1(O)CC[C@H]2[C@@H]3C=C(Cl)C4=CC(=O)[C@@H]5C[C@@H]5[C@]4(C)[C@H]3CC[C@@]21C [CYPROTERONE] ?
104%

Then CC(C)(O)C(Cl)(Cl)Cl [chlorobutanol] ?
102%
